So I've got a bunch of compounds here, and I need their LD50 at 720 h values.
Experiment Summary: Acute toxicity (LD50, Behrens-Karber method)
Format: in vivo, ICR mice
Settings: mouse, in vivo, ip, mortality during 30 days

Need LD50 at 720 h for each of these compounds.
1. COCCN(C(=O)N(CCCl)N=O)C1C(CO)OC(OCC(C)C)C(O)C1O (stereo not shown)
2. CCC(C)O[C@H]1O[C@H](CO)[C@@H](O)[C@H](O)[C@H]1N(CC(C)C)C(=O)N(CCCl)N=O (stereo partly shown)
3. CO[C@H]1O[C@H](CO)[C@@H](O)[C@H](NC(=O)N(CCCl)N=O)[C@H]1O [KCNUM, reference compound]
4. CCC(C)N(C[C@H]1O[C@H](OC2CCCCC2)[C@H](O)[C@@H](O)[C@@H]1O)C(=O)N(CCCl)N=O (stereo partly shown)
5. COC(C)CN(C(=O)N(CCCl)N=O)[C@H]1CO[C@@H](OCC(C)C)[C@H](O)[C@H]1O (stereo partly shown)
6. CCOCCCOC1OC(CO)C(O)C(O)C1N(C(=O)N(CCCl)N=O)C(C)CC (stereo not shown)

Reply:
530 mg/kg
605 mg/kg
130 mg/kg
605 mg/kg
480 mg/kg
560 mg/kg

Task item: Requested read-out: LD50 at 720 h. Entry: COCCCN(C(=O)N(CCCl)N=O)[C@@H]1CO[C@H](OC2CCCCC2)[C@@H](O)[C@@H]1O
Reply: 550 mg/kg

====

Tested on: Leukemia L1210
Experiment Summary: Activity against Leukemia L1210, oral, increase in life span of mice
Type: in vivo, female mice (BDF1 family)
Settings: Mus musculus, L1210; oral once a day for 5 successive days; daily dosage giving maximum increase of life span; read-out: O.D. (optimum dosage)
Measurement Name: ED (maximum ILS) (mg/kg)
Numbers only, in mg/kg.

compound=COCCOCCO[C@H]1O[C@H](CN(C(=O)N(CCCl)N=O)C(C)(C)C)[C@@H](O)[C@H](O)[C@H]1O system_under_test="Leukemia L1210" measurement_unit=mg/kg observed_measurement=200
compound="CCC(COC)O[C@H]1O[C@H](CN(CC(C)(C)C)C(=O)N(CCCl)N=O)[C@@H](O)[C@H](O)[C@H]1O (stereo partly shown)" system_under_test="Leukemia L1210" measurement_unit=mg/kg observed_measurement=200
compound="CO[C@H]1O[C@H](CNC(=O)N(CCCl)N=O)[C@@H](O)[C@H](O)[C@H]1O [Compound 6MCαG, reference compound]" system_under_test="Leukemia L1210" measurement_unit=mg/kg observed_measurement=16.8
compound=CCOCCN(C(=O)N(CCCl)N=O)[C@H]1[C@@H](OCC(C)C)O[C@H](CO)[C@H](O)[C@@H]1O system_under_test="Leukemia L1210" measurement_unit=mg/kg observed_measurement=240
compound="COC(C)CCO[C@H]1O[C@H](CN(C(=O)N(CCCl)N=O)C(C)(C)C)[C@@H](O)[C@H](O)[C@H]1O (stereo partly shown)" system_under_test="Leukemia L1210" measurement_unit=mg/kg observed_measurement=220

Need ED (maximum ILS) for each of these compounds.
1. COCCN(C[C@H]1O[C@H](OCC(C)C)[C@@H](O)[C@@H](O)[C@@H]1O)C(=O)N(CCCl)N=O
2. CC(C)CO[C@H]1O[C@H](CN(CC(C)(C)C)C(=O)N(CCCl)N=O)[C@@H](O)[C@H](O)[C@H]1O

Reply:
1: 240; 2: 200

====

Experiment Summary: Acute toxicity (LD50, Behrens-Karber method)
Assay type: in vivo, ICR mice
Settings: mouse, in vivo, ip, mortality during 30 days
So I've got a bunch of compounds here, and I need their LD50 at 720 h values.
One number for each entry, in mg/kg.

Sample answers from the record:
compound=CCCCCCCCCCN(C[C@H]1O[C@H](OCCCC)[C@H](O)[C@@H](O)[C@@H]1O)C(=O)N(CCCl)N=O measurement_unit=mg/kg observed_measurement=315
compound="COC(C)CO[C@H]1O[C@H](CN(CC2CC2)C(=O)N(CCCl)N=O)[C@H](O)[C@H](O)[C@H]1O (some centres unmarked)" measurement_unit=mg/kg observed_measurement=450
compound=CCCCO[C@H]1O[C@H](CN(CCC)C(=O)N(CCCl)N=O)[C@H](O)[C@H](O)[C@H]1O measurement_unit=mg/kg observed_measurement=430
compound=O=NN(CCCl)C(=O)N(CC1CCCCC1)[C@H]1[C@@H](O)[C@@H](CO)O[C@H](OC2CCCCC2)[C@@H]1O measurement_unit=mg/kg observed_measurement=650
compound="CCCCO[C@H]1O[C@H](CN(CC(C)OC)C(=O)N(CCCl)N=O)[C@@H](O)[C@H](O)[C@H]1O (some centres unmarked)" measurement_unit=mg/kg observed_measurement=495

Need LD50 at 720 h for each of these compounds.
1. CCCCN(C[C@@H]1O[C@@H](OCC2CC2)[C@@H](O)[C@H](O)[C@@H]1O)C(=O)N(CCCl)N=O
2. CCCCO[C@H]1O[C@H](CN(CCCOC)C(=O)N(CCCl)N=O)[C@@H](O)[C@H](O)[C@H]1O
3. COCCOCCO[C@H]1O[C@H](CN(C(=O)N(CCCl)N=O)C(C)(C)C)[C@@H](O)[C@H](O)[C@H]1O

Reply:
490
480
530

====

System: Leukemia L1210
Experiment Summary: Activity against Leukemia L1210, intraperitoneal, increase in life span of mice
Assay type: in vivo, female mice (BDF1 family)
Settings: Mus musculus, L1210, ip, ip once a day for 5 successive days; daily dosage giving maximum increase of life span; read-out: O.D. (optimum dosage)
Measurement Name: ED (maximum ILS) (mg/kg)
One number for each entry, in mg/kg.

compound=CCCN(C[C@H]1O[C@H](OC2CCCCC2)[C@H](O)[C@@H](O)[C@H]1O)C(=O)N(CCCl)N=O system_under_test="Leukemia L1210" observed_measurement=200
compound=CCOCCN(C(=O)N(CCCl)N=O)[C@@H]1[C@@H](O)[C@@H](OC2CCCCC2)OC[C@H]1O system_under_test="Leukemia L1210" observed_measurement=170
compound=CCCO[C@H]1O[C@H](CN(CC(C)C)C(=O)N(CCCl)N=O)[C@@H](O)[C@H](O)[C@H]1O system_under_test="Leukemia L1210" observed_measurement=120
compound=CCOCCO[C@H]1O[C@H](CN(CC(C)C)C(=O)N(CCCl)N=O)[C@H](O)[C@H](O)[C@H]1O system_under_test="Leukemia L1210" observed_measurement=180
compound="C=C(C)CN(C(=O)N(CCCl)N=O)[C@@H]1[C@H](O)[C@@H](O)[C@@H](OCC(COC)OC)O[C@@H]1CO (stereo partly shown)" system_under_test="Leukemia L1210" observed_measurement=160
compound="CCCCOC1OC(CO)C(O)C(N(C(=O)N(CCCl)N=O)C(C)CC)C1O (stereo not shown)" system_under_test="Leukemia L1210" observed_measurement=200

Okay, next one:
Task item: Requested read-out: ED (maximum ILS). Entry: CCC(C)O[C@H]1O[C@H](CN(C(=O)N(CCCl)N=O)C(C)CO)[C@@H](O)[C@H](O)[C@H]1O (stereo partly shown)
Reply: 170

====

So I've got a bunch of compounds here, and I need their ED (maximum ILS) values.
Test system: Leukemia L1210
Experiment Summary: Activity against Leukemia L1210, intraperitoneal, increase in life span of mice
Format: in vivo, female mice (BDF1 family)
Settings: Mus musculus, L1210, ip, ip once a day for 5 successive days; daily dosage giving maximum increase of life span; read-out: O.D. (optimum dosage)
Numbers only, in mg/kg.

Sample answers from the record:
compound="CCOCCCOC1OC(CO)C(O)C(N(CC(C)C)C(=O)N(CCCl)N=O)C1O (stereo not shown)" measurement_name="ED (maximum ILS)" measurement_unit=mg/kg observed_measurement=200
compound="CCOCCCN(C(=O)N(CCCl)N=O)[C@H]1[C@H](OC(C)CC)OC[C@H](O)[C@@H]1O (stereo partly shown)" measurement_name="ED (maximum ILS)" measurement_unit=mg/kg observed_measurement=170
compound=O=NN(CCCl)C(=O)N(CCCCO)C[C@H]1O[C@H](OC2CCCCC2)[C@H](O)[C@@H](O)[C@@H]1O measurement_name="ED (maximum ILS)" measurement_unit=mg/kg observed_measurement=160
compound=CCCCO[C@@H]1O[C@H](CN(C)C(=O)N(CCCl)N=O)[C@@H](O)[C@H](O)[C@H]1O measurement_name="ED (maximum ILS)" measurement_unit=mg/kg observed_measurement=80

Need ED (maximum ILS) for each of these compounds.
1. COCCCO[C@H]1O[C@H](CN(CC(C)C)C(=O)N(CCCl)N=O)[C@@H](O)[C@H](O)[C@H]1O
2. COCC(C)O[C@H]1O[C@H](CN(CC2CC2)C(=O)N(CCCl)N=O)[C@@H](O)[C@H](O)[C@H]1O (stereo partly shown)
3. COCCN(C(=O)N(CCCl)N=O)C1C(OC(C)COC)OC(CO)C(O)C1O (stereo not shown)

Reply:
[170, 150, 180]

Values were extracted from patent US4593090A.
